Molecular target: Human immunodeficiency virus type 1 protease (Human immunodeficiency virus 1, UniProt Q72874)
Test: Binding affinity for HIV-1 protease enzyme was measured by using fluorescent peptide substrate
measuredProperty: log10 of Ki (log10 of the value in nM)
log10 Ki, nM

{"columns": ["molecule", "reported"],
 "data": [
  ["N#CN=C1N(Cc2ccc(CO)cc2)[C@H](Cc2ccccc2)[C@H](O)[C@@H](O)[C@@H](Cc2ccccc2)N1Cc1ccc(CO)cc1", 1.04],
  ["N#CN=C1N(Cc2ccc([N+](=O)[O-])cc2)[C@H](Cc2ccccc2)[C@H](O)[C@@H](O)[C@@H](Cc2ccccc2)N1Cc1ccc([N+](=O)[O-])cc1", 1.83],
  ["O=C1N(Cc2cccc(OCc3ccccc3)c2)[C@H](Cc2ccccc2)[C@H](O)[C@@H](O)[C@@H](Cc2ccccc2)N1Cc1cccc(OCc2ccccc2)c1", 2.53]
]}

Request: Item under review: Nc1ccc(CN2C(=O)N(Cc3ccc(N)cc3)[C@H](Cc3ccccc3)[C@H](O)[C@@H](O)[C@H]2Cc2ccccc2)cc1 . Reported log10 of Ki?
Result: 0.04

Request: Again, but for N#CN=C1N(CC2CCCC2)[C@H](Cc2ccccc2)[C@H](O)[C@@H](O)[C@@H](Cc2ccccc2)N1CC1CCCC1
Result: 0.18

From: ChEMBL document CHEMBL1131343
